Here the recorded IC50 is given for each entry.
- procedure.details: Inhibition of alpha-glucosidase (unknown origin) using PNPG as substrate assessed as p-nitrophenol release from substrate after 30 min
- Set-up: species or system Homo sapiens
Note to self: number, then unit, no commentary.

O=Cc1c(O)cc(O)cc1O [PHLOROGLUCINALDEHYDE] : 4.6 µM

Prompt: Return the recorded IC50 value; entry: COc1cc(OC)c(C=O)c(OC)c1 [2,4,6-TRIMETHOXYBENZALDEHYDE]
Response: 2380 µM

Prompt: Quote IC50 reported for O=C(OC[C@H]1O[C@@H](OC(=O)c2cc(O)c(O)c(O)c2)[C@H](OC(=O)c2cc(O)c(O)c(O)c2)[C@@H](OC(=O)c2cc(O)c(O)c(O)c2)[C@@H]1OC(=O)c1cc(O)c(O)c(O)c1)c1cc(O)c(O)c(O)c1 [PENTAGALLOYL GLUCOSE] please.
Response: 0.39 µM

Prompt: Please give measured IC50 of the following entry: O=C(O)c1cc(O)c(O)c(O)c1 [GALLIC ACID]
Response: 112 µM

Just for reference, ChEMBL document CHEMBL3046183 is where these values come from.
